- Test system: Fibroblast
- assay procedure: Incucyte cell viability with human fibroblast; also: unitless GR value; below 1 slowed growth and below 0 cell loss
- Assay type: toxicity, cell-based
- measurement context: 12 h, 10 µM, compound concentration 10 uM, replicate number 1
Catalogue of Growth Rate values
Keep it simple and answer with nothing but the number.

Consider the following illustrative entries.
compound	value reported
O=C(O)CCC/C=C\C[C@@H]1[C@@H](/C=C/[C@@H](O)COc2cccc(C(F)(F)F)c2)[C@H](O)C[C@@H]1O	0.5
COc1cc(-c2cn(C)c(=O)c3cnccc23)cc(OC)c1CN(C)C	0.48
O=C(Nc1ccc(Oc2ccc(Cl)cc2)c(Cl)c1)c1cc(I)cc(I)c1O [RAFOXANIDE]	-1
Cc1noc(C)c1-c1cnc2c(-c3ccc(C(=O)O)cc3)cn([C@@H](C)c3ccccn3)c2c1	-0.99
COc1ccc([C@@H]2Sc3ccccc3N(CCN(C)C)C(=O)[C@@H]2OC(C)=O)cc1.Cl [DILTIAZEM HYDROCHLORIDE]	-0.67
Cc1cc2nc(N3CCC(C(=O)NC4CCCC4)CC3)n(C(C)C)c2cc1C	0.26
CCOC(=O)Nc1ccc2c(c1)N(C(=O)CN(CC)CC)c1ccccc1CC2	0.64

--- query ---
Task: Test system Fibroblast; read-out Growth Rate; what value for COc1cc(C(=O)NC2CCN(C)CC2)ccc1Nc1ncc2c(n1)N(C1CCCC1)CC(F)(F)C(=O)N2C ?
Output: 0.51

---

- Test system: HEK-293T
- assay procedure: Incucyte cell viability with HEK293T; also: unitless GR value; below 1 slowed growth and below 0 cell loss
- Type: toxicity, cell-based
- measurement context: human, 18 h, 10 µM, compound concentration 10 uM, replicate number 2
Categorized via Growth Rate: low (below 0.06), middle (0.06 to below 0.7), high (0.7 or more)

Below are worked cases with known answers.
compound	target under test	discrete label
CCC(C)(C)NC(=NC#N)Nc1cccnc1	HEK-293T	high
Clc1ccccc1C(c1ccccc1)(c1ccccc1)n1ccnc1	HEK-293T	middle
Cn1c(SCc2ccc(C(C)(C)C)cc2)nc(N)cc1=O	HEK-293T	middle
O=C(O)c1ccc(S(=O)(=O)N(Cc2ccc(OC(F)(F)F)cc2)c2ncc(C(F)(F)F)cc2Cl)cc1	HEK-293T	high
CC(C)(C)c1cnc(CSc2cnc(NC(=O)C3CCN(CC(=O)NCCOCCOCCOCCNc4cccc5c4C(=O)N(C4CCC(=O)NC4=O)C5=O)CC3)s2)o1 (configuration not stated)	HEK-293T	low
CN1CCN(c2ccc(/C=C(\C#N)c3ccccc3Br)cc2)CC1.Cl.Cl	HEK-293T	middle
CC(C=CC1=C(C)CCCC1(C)C)=CC=CC(C)=CC(=O)O	HEK-293T	high
COc1ccccc1-c1cc(Nc2cccc(CS(N)(=O)=O)c2)ncn1	HEK-293T	middle

Shifting focus to the compound that follows.
Task: Class for CC(=O)O[C@H]1C(=O)[C@@]2(C)[C@H]([C@H](OC(=O)c3ccccc3)[C@]3(O)C[C@H](OC(=O)[C@H](O)[C@@H](NC(=O)c4ccccc4)c4ccccc4)C(C)=C1C3(C)C)[C@]1(OC(C)=O)CO[C@@H]1C[C@@H]2O ?
Output: low

---

- System: Fibroblast
- assay procedure: Incucyte cell viability with human fibroblast; also: unitless GR value; below 1 slowed growth and below 0 cell loss
- Format: toxicity, cell-based
- measurement context: 12 h, 10 µM, compound concentration 10 uM, replicate number 1
Okay, here is how we bin by Growth Rate: low value = under -0.8, medium value = from -0.8 up to 0.5, high value = 0.5 and over

Before answering, review these 2 worked examples.
compound	discrete label
COc1cc(-c2cn(C)c(=O)c3cnccc23)c(OC)cc1CN(C)C	high value
CCOC(=O)/N=C(\N)c1ccc(OCc2cccc(COc3ccc(C(C)(C)c4ccc(OC(=O)OCC)cc4)cc3)c2)cc1	high value

Task: Given Oc1ccc(-c2nc(-c3ccncc3)c(-c3ccc(F)cc3)[nH]2)cc1 [SB-202190] , name the class its Growth Rate places it in.
Output: medium value

Task: Form: Item = Cl.NC(=O)c1ccccc1Nc1nc(-c2ccc(N3CCOCC3)cc2)cc2ncccc12 ; Class = ?
Output: medium value

Task: Classify this compound: CC(C)c1nc2c(c3c1[C@H](c1ccc(C(F)(F)F)cc1)OC31CCOCC1)[C@H](O)CC(C)(C)C2
Output: medium value

Task: Just checking, what class would you give COC[C@H](O)Cn1c(=O)cnn(-c2ccc(Cl)c(C(=O)NCC3(O)CCCCCC3)c2)c1=O [CE-224535] here?
Output: low value

Task: Consider CC[C@H](CO)Nc1nc(Nc2cccc(-c3ccccn3)c2)c2ncn(C(C)C)c2n1.Cl.O . To which Growth Rate class does it belong?
Output: medium value

Task: Bin this entry: O=C(Nc1c(-c2cccs2)nc2ccc(Cl)cn12)c1ccc(Cl)cc1
Output: low value

Task: Which of the defined bands does the recorded Growth Rate of CNc1nc(-c2ccc3c(N)n[nH]c3c2)cc(N2C[C@@H](C(=O)NC3CCCCC3)CC[C@H]2C)n1 sit within?
Output: high value

Task: # bin lookup: classify Cc1ccc(-n2nc(C(C)(C)C)cc2NC(=O)Nc2ccccc2F)cc1 by its Growth Rate
Output: high value

Task: Note: place this compound into its band. Item: O=C(Cc1ccccc1)Nc1nnc(N2C[C@H]3C[C@@H]2CN3c2cccnn2)s1 [A-446]
Output: medium value

Task: Note: place this compound into its band. Item: Cc1cc(CN)cc(C)c1-c1ncn(C)c1-c1ccnc2cc(F)ccc12.Cl
Output: high value

Task: Record CN(CCCCCCC1=C(c2cc(F)cc(F)c2)CCCc2cc(O)ccc21)CCCCS(=O)(=O)CCCC(F)(F)F — which class?
Output: low value

Task: Class? Entry: Cc1c[nH]c(-c2cnc(NCCNc3ccc(C#N)cn3)nc2-c2ccc(Cl)cc2Cl)n1 [LADUVIGLUSIB]
Output: medium value

Task: Categorize the following entry: COCCNc1cc(NC(=O)N2CCCc3cc(CN4CCOCC4=O)c(C=O)nc32)ncc1C#N
Output: low value

Task: # bin label for CC(C)Oc1ccc(-c2cnc3c(-c4ccnc5ccccc45)cnn3c2)cc1
Output: low value

Task: Dear colleague, I would appreciate it if you could identify the bin for Cl.O=C(NCCN1CCC2(CC1)C(=O)NCN2c1cccc(F)c1)c1ccc2ccccc2c1 and reply at your convenience.
Output: medium value
